IC50 by entry:
Test system: KRAS G12V dependent lung adenocarcinoma cell line, NCI-H441
Experiment: Cellular pERK (Thr202/Tyr204) FRET/HTRF assay
Assay type: cell-based
Conditions: Homo sapiens, NCI-H441, cellular pERK (Thr202/Tyr204) HTRF, NCI-H441 cells

C=C1CN2CCC3(CC3)[C@@]2(COc2nc(N3CCCC[C@H]4[C@H](F)[C@H]43)c3cnc(-c4cc(N)cc(Cl)c4C(F)(F)F)c(F)c3n2)C1    < 50 nM
[2H]C([2H])(Oc1nc(N2CCCOC3C2C3(Cl)Cl)c2cnc(-c3cc(N)cc4ccc(F)c(C#C)c34)c(F)c2n1)[C@@]12CCCN1C[C@H](F)C2 (some centres unmarked)    50 to 500 nM
C#Cc1c(F)ccc2cc(N)cc(-c3ncc4c(N5CCOC[C@H]6[C@H](F)[C@H]65)nc(OC[C@@]56CCCN5C[C@]5(C[C@@H]5F)C6)nc4c3F)c12 (single isomer, unassigned)    < 50 nM
[2H]C([2H])(F)Oc1c(F)cc(F)c2cc(N)cc(-c3ncc4c(N5CCOC[C@H]6[C@H](F)[C@H]65)nc(OC([2H])([2H])[C@@]56CCCN5C[C@H](F)C6)nc4c3F)c12    < 50 nM

Problem: Data request, read-out IC50, for `[2H]C([2H])(Oc1nc(N2CCCC[C@H]3[C@H](F)[C@H]32)c2cnc(-c3cc(O)cc4ccc(F)c(C#C)c34)c(F)c2n1)[C@@]12CCCN1C[C@H](F)C2`
Result: < 50 nM

---

Tested on: KRAS G12V dependent lung adenocarcinoma cell line, NCI-H441
Assay: Cellular pERK (Thr202/Tyr204) FRET/HTRF assay
Assay type: cell-based
Conditions: Homo sapiens, NCI-H441, cellular pERK (Thr202/Tyr204) HTRF, NCI-H441 cells
pIC50: −log10 of the molar value.
Readout type: pIC50

[2H]C([2H])(Oc1nc(N2CCOC[C@H]3[C@H](Cl)[C@H]32)c2cnc(-c3cc(N)cc4cccc(C#C)c34)c(F)c2n1)[C@@]12CCCN1[C@H](C)[C@H](F)C2 [Example 348]    > 7.30
[2H]C([2H])(Oc1nc(N2CCOC[C@H]3[C@H](F)[C@H]32)c2cnc(-c3cccc4ccc(C)c(C#C)c34)c(F)c2n1)[C@@]12CCCN1C[C@H](F)C2 [Example 325]    > 7.30
[2H]C([2H])([2H])Oc1c(F)c(F)c(F)c2cc(N)cc(-c3ncc4c(N5CCOC[C@@H]6[C@H]5[C@@]6([2H])F)nc(OC([2H])([2H])[C@@]56CCCN5C[C@H](F)C6)nc4c3F)c12 [Example 119]    > 7.30
[2H]C([2H])(Oc1nc(N2CCOC[C@H]3[C@H](F)[C@H]32)c2cnc(-c3cc(N)cc(C)c3C(F)(F)F)c(F)c2n1)[C@@]12CCCN1C[C@H](F)C2 [Example 168]    5.00 to 6.30

Problem: Look at this compound and give its reported pIC50. C#Cc1c(F)ccc2cc(N)cc(-c3ncc4c(N5CCOC[C@H]6[C@H](F)[C@H]65)nc(OC[C@@]56CCCN5C/C(=C/F)C6)nc4c3C)c12 [Example 426]
Result: > 7.30

Problem: Param item: [2H]C([2H])(Oc1nc(N2CCOC[C@H]3[C@H](F)[C@H]32)c2cnc(-c3cc(N)cc4ccc(C)c(C#C)c34)c(F)c2n1)[C@@]12CCCN1[C@H](C)[C@H](F)C2 [Example 410]
Result: > 7.30

Problem: Can you check [2H]C([2H])(F)Oc1c(F)ccc2cc(N)cc(-c3ncc4c(N5CCOC[C@H]6[C@H](F)[C@H]65)nc(OC[C@@]56CCCN5CC5(CC5)C6)nc4c3F)c12 [Example 200] next?
Result: > 7.30
